target: T1, human CD3e/g antigen (ACRO, catalog number CDG-H52W5) (human, UniProt P07766 23-126; P09693 23-116); assay: SPR (Biacore 8K), antibody captured via anti-human Fc
T1 construct: Bought reagent used as the Biacore analyte; also called hCD3e/g
Readout: kon (M⁻¹ s⁻¹)
Give your result in M⁻¹ s⁻¹ as a bare value.

Enquiry: I'd like to know its kon. The binder in question is hAb008-23 (antibody, V domains shown, Humanized; constant regions not specified) VH: QVQLVQSGAEVKKPGASVKVSCKASGYTFTDYTVNWVRQAPGQRLEWIGYINPFNSYTKYNQKFKDRVTITADTSASTAYMELSSLRSEDTAVYYCANSVSTYWGQGTTVTVSS VL: DVVMTQSPLSLPVTLGQPASISCKSSQSLLDSDGKTYLNWLLQRPGQSPRRLIQLVSKLNSGVPDRFSGSGSGTDFTLKISRVEAEDVGVFYCWQGTHFPRTFGGGTKLEIK
Return: 280000

Enquiry: Same for hAb001-19 (antibody, V domains shown, Humanized; constant regions not specified) VH: QVQLVQSGAEVKKPGASVKVSCKASGYSFTNYYMHWVRQAPGQRLEWMGWTYPGNNNIKYNEKFKGRVTITRDTSASTAYMELSSLRSEDTAVYYCARDGYGYYFFDYWGQGTLVTVSS VL: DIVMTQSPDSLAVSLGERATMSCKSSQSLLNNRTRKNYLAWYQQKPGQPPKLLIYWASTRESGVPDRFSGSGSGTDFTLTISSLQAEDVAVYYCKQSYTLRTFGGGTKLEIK
Return: 375000
